measurementDescription: chemical genetic growth profiling, strain panel (AID 1159580);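 also: tested at 20 µM; growth read once vehicle control cultures reached saturation at 30 °C; lower values mean less growth of the strain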
measurementSetup: S. cerevisiae deletion strains, growth OD, locus YDR318W, strain mcm21
The campaign covered roughly 5,500 compounds. About 2,000 (36%) were called active. Another 18% or so got no clear call; they are omitted. Rule as the data show it: active = normalized growth mostly below about 0.91 (no sharp cut-off); inconclusive = no clear call, values can overlap the other calls; inactive = mostly above about 0.92. This is one part of the list.
Answer with one of the outcomes given here: active, inactive

Exercise: Dear all, I need the recorded test outcome for Nc1nc2ncc(CNc3ccc(C(=O)N[C@@H](CCC(=O)O)C(=O)O)cc3)nc2c(=O)[nH]1 , thank you.
Solution: inactive

Exercise: Dear all, I need the recorded test outcome for CN(Cc1cnc2nc(N)nc(N)c2n1)c1ccc(C(=O)NC(CCC(=O)O)C(=O)O)cc1 (stereo unspecified) , thank you.
Solution: inactive

Exercise: Dear all, I need the recorded test outcome for CC(COc1ccccc1)N(CCCl)Cc1ccccc1 (stereo unspecified) , thank you.
Solution: inactive

Exercise: Dear all, I need the recorded test outcome for Nc1nc2c(c(=O)[nH]1)N(C=O)C(CNc1ccc(C(=O)N[C@@H](CCC(=O)O)C(=O)O)cc1)CN2 (stereo partly specified) , thank you.
Solution: inactive

Exercise: Dear all, I need the recorded test outcome for C=CCN1CC[C@]23c4c5ccc(O)c4OC2C(=O)CC[C@@]3(O)[C@H]1C5 (stereo partly specified) , thank you.
Solution: inactive

Exercise: Dear all, I need the recorded test outcome for c1ccc2[nH]c(-c3cscn3)nc2c1 , thank you.
Solution: inactive

Exercise: Dear all, I need the recorded test outcome for CC1=C(/C=C/C(C)=C/C=C/C(C)=C/CO)C(C)(C)CCC1 , thank you.
Solution: inactive

Exercise: Dear all, I need the recorded test outcome for CCOC(=O)CCCCCCCCCCCCC1C=CCC1 (stereo unspecified) , thank you.
Solution: active

Exercise: Dear all, I need the recorded test outcome for CC1=C(/C=C/C(C)=C/C=C/C(C)=C/C=C/C=C(C)/C=C/C=C(C)/C=C/C2=C(C)CCCC2(C)C)C(C)(C)CCC1 , thank you.
Solution: inactive

Exercise: Dear all, I need the recorded test outcome for COc1cc(/C=C/C(=O)O)cc(OC)c1OC , thank you.
Solution: inactive

Exercise: Dear all, I need the recorded test outcome for O=C1N=C(O)CN1/N=C\c1ccc(-c2ccc([N+](=O)[O-])cc2)o1 , thank you.
Solution: inactive

Exercise: Dear all, I need the recorded test outcome for COc1cc(C(=O)O)c(O)c2c1OCO2 , thank you.
Solution: inactive

Exercise: Dear all, I need the recorded test outcome for O=C(O)CCC(=O)c1ccc(-c2ccccc2)cc1 , thank you.
Solution: inactive

Exercise: Dear all, I need the recorded test outcome for CC1=C(/C=C/C(C)=C/C=C/C(C)=C/C(=O)O)C(C)(C)CCC1 , thank you.
Solution: inactive

Exercise: Dear all, I need the recorded test outcome for C[C@H](COc1ccccc1)N[C@H](C)[C@H](O)c1ccc(O)cc1 , thank you.
Solution: inactive

Exercise: Dear all, I need the recorded test outcome for COc1cc(/C=C/C(=O)O)ccc1O , thank you.
Solution: inactive

Exercise: Dear all, I need the recorded test outcome for COC(=O)[C@H]1[C@H]2C[C@@H]3c4[nH]c5cc(OC)ccc5c4CCN3C[C@H]2C[C@@H](OC(=O)c2cc(OC)c(OC)c(OC)c2)[C@@H]1OC , thank you.
Solution: inactive

Exercise: Dear all, I need the recorded test outcome for NC(=O)N/N=C\c1ccc([N+](=O)[O-])o1 , thank you.
Solution: inactive

Exercise: Dear all, I need the recorded test outcome for COc1ccc(-c2cc(C(F)F)nn2-c2ccc(S(N)(=O)=O)cc2)cc1F , thank you.
Solution: inactive

Exercise: Dear all, I need the recorded test outcome for CC1=CC(=O)CC(C)(C)C1(O)/C=C/C(C)=C\C(=O)O (stereo unspecified) , thank you.
Solution: inactive

Exercise: Dear all, I need the recorded test outcome for O=C1CN(/N=C\c2ccc([N+](=O)[O-])o2)C(=O)N1 , thank you.
Solution: inactive
